Reference source for all entries: paper PMC6039563

Target: C. maenas DH31R (Carcinus maenas, UniProt A0A345BTT1)
Sequence (A0A345BTT1 1-442): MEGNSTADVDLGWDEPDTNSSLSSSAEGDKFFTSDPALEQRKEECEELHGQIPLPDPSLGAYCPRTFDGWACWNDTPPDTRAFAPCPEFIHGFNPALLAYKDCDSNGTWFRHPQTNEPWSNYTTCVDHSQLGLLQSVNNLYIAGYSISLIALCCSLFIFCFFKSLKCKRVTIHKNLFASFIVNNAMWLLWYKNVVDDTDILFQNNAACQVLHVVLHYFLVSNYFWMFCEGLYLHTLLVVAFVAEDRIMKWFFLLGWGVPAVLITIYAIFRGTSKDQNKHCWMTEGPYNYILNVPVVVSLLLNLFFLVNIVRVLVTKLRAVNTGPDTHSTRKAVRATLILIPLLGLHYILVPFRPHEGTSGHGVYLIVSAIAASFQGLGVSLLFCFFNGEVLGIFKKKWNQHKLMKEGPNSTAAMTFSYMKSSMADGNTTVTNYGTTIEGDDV
Experiment: aequorin luminescence Ca2+ mobilization assay, CHO-K1-Aeq-Gα16 cells transiently expressing DH31R
Assay type: cell-based
Conditions: CHO-K1-Aeq-Gα16 cells transfected with DH31R; Figure 3 inset, independent set of transfections; means of N = 4; read-out: EC50 of luminescence response
Ends that are not written are not given here.
readout.label: EC50

Given the substance GLDMGLGRGFSGSQAAKHLMGLAAANYAGGP-NH2 [C. maenas DH31] , what is its reported EC50?
~15 nM

---

Molecular target: C. maenas DH31R (Carcinus maenas, UniProt A0A345BTT1)
Assay: cell-based
Ends that are not written are not given here.
readout.label: EC50

Given the substance GLDMGLGRGFSGSQAAKHLMGLAAANYAGGP-NH2 [C. maenas DH31] , what is its reported EC50?
~15 nM

---

Consider the following substances; for each one, report its EC50.
Biological target: C. maenas DH31R (Carcinus maenas)
Experiment: aequorin luminescence Ca2+ mobilization assay, CHO-K1-Aeq-Gα16 cells transiently expressing DH31R
Assay type: cell-based
Conditions: CHO-K1-Aeq-Gα16 cells transiently expressing DH31R; simultaneously performed experiments with three DH31s (Figure 3 main panel); means of n = 4; read-out: EC50 of luminescence response
Method: Cells were then diluted 10-fold prior to assay. Amino acid sequences are shown in Supplementary Table S2. […] Receptor responses were normalized against total Ca^2+ luminescence.
Ends that are not written are not given here.

Given the substance GLDLGLGRGFSGSQAAKHLMGLAAANFAGGP-NH2 [Tribolium castaneum DH31] , what is its reported EC50?
~30 nM

Now consider GLDMGLGRGFSGSQAAKHLMGLAAANYAGGP-NH2 [C. maenas DH31] .
~30 nM

Now consider GLDLGLSRGFSGSQAAKHLMGLAAANYAGGP-NH2 [Diploptera punctata DH31] .
~30 nM
